Target: T1, Human ST2 (human, UniProt Q01638 19-328, limits assumed)
T1 construct: also called human ST2 protein; Interleukin 1 receptor-like 1
T1 sequence (looked up): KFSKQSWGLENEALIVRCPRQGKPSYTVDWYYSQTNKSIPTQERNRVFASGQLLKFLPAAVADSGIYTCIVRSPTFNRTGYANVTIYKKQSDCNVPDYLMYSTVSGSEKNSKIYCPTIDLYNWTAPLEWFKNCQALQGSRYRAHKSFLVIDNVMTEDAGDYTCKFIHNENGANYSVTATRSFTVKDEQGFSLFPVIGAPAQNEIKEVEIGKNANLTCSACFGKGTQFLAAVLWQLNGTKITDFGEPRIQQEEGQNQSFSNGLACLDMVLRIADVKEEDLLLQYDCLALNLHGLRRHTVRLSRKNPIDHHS
Test: SPR (Carterra), antibody immobilized, ST2 analyte
# kon values compiled below
Please reply with the bare figure in M⁻¹ s⁻¹ and do not write the unit itself.

Some solved entries appear below for comparison.
BINDER	REPORTED_MEASUREMENT
Human ST2 IgG1 Antibody 44 (antibody, V domains shown, IgG1; also called ST2 Antibody 44) VH: EVQLLESGGGLVKPGGSLRLSCAASGFTFSSYWMSWVRQAPGKGLEWVSAISGTAINTYYADSVKGRFTISRDDSKNTLYLQMNSLKTEDTAVYYCARVRRDSSGGGAFDIWGQGTMVTVSS VL: DIQMTQSPSSLSASVGDRVTITCRASQGISNNLNWYQQKPGKAPKLLIYAASSLQTGVPSRFSGSGSGTDFTLTISSLQPEDFATYYCQQSYSTPPTFGQGTKVEIKR	240000
Human ST2 IgG1 Antibody 20 (antibody, V domains shown, IgG1; also called ST2 Antibody 20) VH: EVQLLESGAEVKKPGSSVKVSCKASGGTFSSYAISWVRQAPGQGLEWMGGIIPIFGTANYAQKFQGRVTITADESTSTAYMELSSLRSEDTAVYYCASGFYSNDLYYYYYMDVWGKGTTVTVSS VL: DIQMTQSPSSLSASVGDRVTITCRASQSISSWLAWYQQKPGKAPKLLIYDASNLKTGVPSRFSGSGSGTDFTLTISSLQPEDFATYYCQQTYAIPLTFGGGTKVEIKR	810000
Human ST2 IgG1 Antibody 95 (antibody, V domains shown, IgG1; also called ST2 Antibody 95) VH: QVQLVQSGAEVKKPGSSVKVSCKASGYTFTSYGISWVRQAPGQGLEWMGGIIPIFGTANYAQKFQGRVTITADESTSTAYMELSSLRSEDTAVYYCARVMARRDGYNFKGGWYFDLWGRGTLVTVSS VL: DIVMTQSPLSLPVTPGEPASISCRSSQSLLHSNGYNYLDWYLQKPGQSPQLLIYAASSLQSGVPDRFSGSGSGTDFTLKISRVEAEDVGVYYCMQALETPPTFGQGTKLEIKR	19000
Human ST2 IgG1 Antibody 28 (antibody, V domains shown, IgG1; also called ST2 Antibody 28) VH: QVQLVQSGAEVKKPGSSVKVSCKASGGTFGNYGINWVRQAPGQGLEWMGGIIPVFGTTNYAQKFQGRVTITADESTSTAYMELSSLRSEDTAVYYCARGLRYYYGMDVWGQGTTVTVSS VL: DIVMTQSPLSLPVTPGEPASISCRSSQSLLHSNGYNYLDWYLQKPGQSPQLLIYGASTLQSGVPDRFSGSGSGTDFTLKISRVEAEDVGVYYCMQALQNPLTFGGGTKVEIKR	160000

We next turn to a different binder, shown below.
Incoming: Note down kon recorded for Human ST2 IgG1 Antibody 16 (antibody, V domains shown, IgG1; also called ST2 Antibody 16) VH: QVQLVQSGAEVKKPGASVKVSCKASGYTFTSHYMHWVRQAPGQGLEWMGIINPSGGSTSYAQKFQGRVTMTRDTSTSTVYMELSSLRSEDTAVYYCARAGIGYLAAHDLYYYYGMDVWGRGTLVTVSS VL: EIVMTQSPATLSVSPGERATLSCRASQSVSSNFAWYQQKPGQAPRLLIYGASTRATGIPARFSGSGSGTEFTLTISSLQSEDFAVYYCQQYYSTPYTFGQGTKVEIKR
Outgoing: 580000
